Kindly supply the reported pIC50 values for the records listed here.
- ASSAY_TARGET: PKD2 (Homo sapiens)
- Construct: made in house; host or cells: HEK293T cells, transient transfection with pDEST27-PRKD2, stimulated with 500 nM PDB before lysis
- Sequence (Q9BZL6 whole entry): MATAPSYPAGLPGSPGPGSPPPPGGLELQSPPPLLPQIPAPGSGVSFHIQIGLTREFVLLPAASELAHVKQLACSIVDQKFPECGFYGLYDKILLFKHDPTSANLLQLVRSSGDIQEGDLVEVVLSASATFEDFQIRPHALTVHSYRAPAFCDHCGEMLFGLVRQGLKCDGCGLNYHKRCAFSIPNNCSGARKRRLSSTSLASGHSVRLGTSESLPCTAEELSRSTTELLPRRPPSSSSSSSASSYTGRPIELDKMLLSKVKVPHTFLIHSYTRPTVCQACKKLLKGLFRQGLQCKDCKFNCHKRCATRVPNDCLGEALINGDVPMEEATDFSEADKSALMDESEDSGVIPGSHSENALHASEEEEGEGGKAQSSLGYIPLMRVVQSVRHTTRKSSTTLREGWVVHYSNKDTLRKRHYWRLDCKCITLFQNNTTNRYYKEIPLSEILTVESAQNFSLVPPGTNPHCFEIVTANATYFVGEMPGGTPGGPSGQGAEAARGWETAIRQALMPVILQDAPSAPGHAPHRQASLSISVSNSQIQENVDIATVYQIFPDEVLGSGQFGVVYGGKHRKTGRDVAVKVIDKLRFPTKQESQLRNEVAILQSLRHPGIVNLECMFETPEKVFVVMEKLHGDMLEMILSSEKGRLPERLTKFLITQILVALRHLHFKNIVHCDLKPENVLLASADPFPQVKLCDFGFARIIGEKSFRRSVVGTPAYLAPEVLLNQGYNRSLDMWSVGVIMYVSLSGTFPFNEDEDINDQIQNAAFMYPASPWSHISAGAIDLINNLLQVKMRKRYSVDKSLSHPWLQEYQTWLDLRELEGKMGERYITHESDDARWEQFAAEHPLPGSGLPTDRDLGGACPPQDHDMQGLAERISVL
- PROTOCOL_TEXT: PKD2 screening assay (in vitro radiometric kinase assay)
- Format: biochemical
- RECORDED_CONDITIONS: PDB stimulated GST-PKD2, Syntide-2, 25µM ATP, radiometric
Answers are plain numbers, as −log10 of the molar value.

| COMPOUND | ASSAY_TARGET | pIC50 |
| --- | --- | --- |
| CC(C)(C)n1nc(Cc2ccccc2Cl)c2c(N)ncnc21 [Compound 7b] | PKD2 (Homo sapiens) | 6.35 |

Consider the additional compound presented here.
Task: Param readout = pIC50; param system = PKD2 (Homo sapiens); param query = Cn1nc(Cc2cccc3ccccc23)c2c(N)ncnc21 [Compound 7m] ; response: value
Output: 5.33
